EC50 (nM), MNC based killing of A431 cells, E:T 80:1 for assorted binders
biological target: NKp30 on human NK cells (human) (UniProt O14931); assay: cell-based or functional assay
Sequence (O14931 19-201): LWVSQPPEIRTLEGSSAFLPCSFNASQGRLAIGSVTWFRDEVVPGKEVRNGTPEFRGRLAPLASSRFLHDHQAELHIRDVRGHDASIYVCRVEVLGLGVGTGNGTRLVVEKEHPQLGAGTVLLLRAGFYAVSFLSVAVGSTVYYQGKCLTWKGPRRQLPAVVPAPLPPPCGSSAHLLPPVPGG
assay_endpoint: EC50 (nM), MNC based killing of A431 cells, E:T 80:1

VHH15 SEEDbody eff- (bispecific antibody, part only; not given: silenced SEED Fc and cetuximab Fab, V domains shown, not shown: another chain or arm of the molecule; a dimerising Fc or GST; small tags and cut ends) VHH: DVQLQESGGGLVQAGGSLRLSCAVSGSTFRLNVMGWYRQAPGKLRDLVAGITADGGVTNYADSVKGRFIISRDNAKNTVYLQMNSLKPEDTAIYYCNTAPANWGSWGQGTQVTVSS    0.0013
VHH13 SEEDbody eff- (bispecific antibody, part only; not given: silenced SEED Fc and cetuximab Fab, V domains shown, not shown: another chain or arm of the molecule; a dimerising Fc or GST; small tags and cut ends) VHH: DVQLQESGGGLAQPGGPLRLSCAASGRTFTSDFMGWFRQAPGKEREFVAAIHWSGGSRSYADSVKGRFTISRDNAKDTVYLLMNSLKLEDTAVYYCAAEIRWQTAGWVNLGSWGQGTQVTVSS    0.00241
VHH11 SEEDbody eff- (bispecific antibody, part only; not given: silenced SEED Fc and cetuximab Fab, V domains shown, not shown: another chain or arm of the molecule; a dimerising Fc or GST; small tags and cut ends) VHH: DVQLQESGGGLVQAGGSLRLSCAASGRTFSSDFMGWFRQAPGKEREFVAAIHWSGGSTSYADSVKGRFTISRDNAKDTVYLLMNSLKLEDTAVYYCAAEIRWLTTGWANLGSWGQGTQVTVSS    0.0111
VHH9 SEEDbody eff- (bispecific antibody, part only; not given: silenced SEED Fc and cetuximab Fab, V domains shown, not shown: another chain or arm of the molecule; a dimerising Fc or GST) VHH: DVQLQESGGGLVQAGGSLRLSCAASGRGGASYAMGWFRQAPGKEREFVAAISWTGDTTYNVDSVKGRFTISSDNAKNPVYLDMSSLKPEDTAVYYCAAAHWTRVVAKGAMADEKKYEYWGQGTQVTVSS    0.0161
VHH2 SEEDbody eff- (bispecific antibody, part only; not given: silenced SEED Fc and cetuximab Fab, V domains shown, not shown: another chain or arm of the molecule; a dimerising Fc or GST; small tags and cut ends) VHH: DVQLQESGGGLVQAGGSLRLSCAVSGQTWTNYHIGWFRQAPGKARESVASIEWGGRGTYATDSVKGRFTISRDNAKNTVYLQMNSLKPEDTAVYYCAAQSSSRSPLESNYDYWGQGTQVTVSS    0.0132
VHH6 SEEDbody eff- (bispecific antibody, part only; not given: silenced SEED Fc and cetuximab Fab, V domains shown, not shown: another chain or arm of the molecule; a dimerising Fc or GST; small tags and cut ends) VHH: DVQLQESGGGLVQTGGSLRLSCAASGLPFSKYAIAWFRQAPGKESEFLVVVSWSGDKFYQDNMKGRCTISRDNAKNTAYLQINSLQPEDTAVYYCAASGSYPVTDRYFYNFWGQGTQVTVSS    1.43
VHH5 SEEDbody eff- (bispecific antibody, part only; not given: silenced SEED Fc and cetuximab Fab, V domains shown, not shown: another chain or arm of the molecule; a dimerising Fc or GST; small tags and cut ends) VHH: DVQLQESGGGLVQPGESLRLSCLVSGVTYHFYDITWFRQAPGLEREGVSCISYASGSTKFADSVKGRFTISRDNAKNAVYLQMNSLKPEDTAVYFCATQGSGSCSDFMSADSVLSWGQGTQVTVSS    0.00286
VHH4 SEEDbody eff- (bispecific antibody, part only; not given: silenced SEED Fc and cetuximab Fab, V domains shown, not shown: another chain or arm of the molecule; a dimerising Fc or GST; small tags and cut ends) VHH: DVQLQESGGGLVQPGESLRLSCLVSGVTYHFYDITWFRQAPGLEREGVSCISYASGSTKFADSVKGRFTISRDNAKNAVYLQMNSLKPEDTAVYFCAMQGSGSCSDFMSADSVLSWGQGTQVTVSS    0.00592
VHH1 SEEDbody eff- (bispecific antibody, part only; not given: silenced SEED Fc and cetuximab Fab, V domains shown, not shown: another chain or arm of the molecule; a dimerising Fc or GST; small tags and cut ends) VHH: DVQLQESGGGLVQPGGSLRLSCATSGFTLDDYTIGWVRQAPGKEHEGVSCFSPSDGTTYYADSVKGRFTFSRDNAKNTVYLQMNSLKPEDTAVYYCAASFADGSSWCYDYWGQGTQVTVSS    0.00171
VHH12 SEEDbody eff- (bispecific antibody, part only; not given: silenced SEED Fc and cetuximab Fab, V domains shown, not shown: another chain or arm of the molecule; a dimerising Fc or GST; small tags and cut ends) VHH: DVQLQESGGGLVQAGGSLRLSCAASGRTFSSDFMGWFRQAPGKEREFVAAIHWSGGSRSYADSVKGRFTISRDNAKDTVYLLMNSLKLEDTAVYYCAAEIRWQTTGWANLGSWGQGTQVTVSS    0.00207
VHH10 SEEDbody eff- (bispecific antibody, part only; not given: silenced SEED Fc and cetuximab Fab, V domains shown, not shown: another chain or arm of the molecule; a dimerising Fc or GST; small tags and cut ends) VHH: DVQLQESGGGSVQAGGSLRLSCAASGRTFSSNFMGWFRQAPNKDREFVAAIHWSGGSRAYADSVKGRFTISRDNTKDTVYLLVNSLKLEDTAVYYCAAEISWQTTGWTNLGSWGQGTQVTVSS    0.0146
VHH3 SEEDbody eff- (bispecific antibody, part only; not given: silenced SEED Fc and cetuximab Fab, V domains shown, not shown: another chain or arm of the molecule; a dimerising Fc or GST; small tags and cut ends) VHH: DVQLQESGGGLVQPGESLKLSCLVSGVTYHFYDITWFRQAPGLEREGVSCISYASGTTKFADSVKGRFTISRDNAKNAVYLEMNSLKPEDTAVYFCATQGSGSCSDFMSAGSVLSWGQGTQVTVSS    0.00284
VHH8 SEEDbody eff- (bispecific antibody, part only; not given: silenced SEED Fc and cetuximab Fab, V domains shown, not shown: another chain or arm of the molecule; a dimerising Fc or GST; small tags and cut ends) VHH: DVQLQESGGGLAQPGGSLRLSCAASGFTFSSYDMGWYRQAPGKECELVAAIFSADGSTIYADSVKGRFTISSDNAKNTVFLQMNSLKPEDTAVYYCNKAPPFTTIQPMCVMIDTQLGAWGQGTQVTVSS    0.00899
VHH7 SEEDbody eff- (bispecific antibody, part only; not given: silenced SEED Fc and cetuximab Fab, V domains shown, not shown: another chain or arm of the molecule; a dimerising Fc or GST; small tags and cut ends) VHH: DVQLQESGGGLAQPGGSLRLSCAASGFTFSSYDMGWYRQVPGKECELVAAIFSAGGSTIYADSVKGRFTISRDNAKNTVFLQMNSLKPEDTAVYYCNKAPPFTTIQPTCVMIDTQLGAWGQGTQVTVSS    0.0433
